GI50 for assorted compounds
- Test system: MOLT-4
- ASSAY SUMMARY: NCI tumour cell line growth inhibition, 48 h
Activity calls are given as the source filed them. Cut-off read from the data, not from the text of the source: active = GI50 up to about 1.1 µM and inactive = higher.

Some compounds with recorded GI50:
COC(=O)C1=NC(=S)NC(c2ccccc2)C1c1nc2ccccc2s1 (stereo not given); > 100 µM (inactive)
CN1CN(c2ccccc2)C2(CCN(CCCN(C)c3ccc(F)cc3)CC2)C1=O; 5.02 µM (inactive)
COc1ccccc1NC(=O)CC(=O)n1nc(C)c(/N=N/c2ccccc2Cl)c1C; 80.2 µM (inactive)

Input O=C(CC1(O)C(=O)Nc2ccc(Br)cc21)c1ccc(Cl)cc1 (stereo not given) . Output GI50: 43.3 µM (inactive)

Input O=CC(O)C(O)C(O)C(O)C(=O)NCCCCCCCCCCCCNC(=O)C(O)C(O)C(O)C(O)C=O (stereo not given) . Output GI50: > 100 µM (inactive)

Input CC1CC(C2=CC=CCS2)=Nc2ccccc2S1 (stereo not given) . Output GI50: > 100 µM (inactive)

Input CC(C)CSCC1OC(n2cnc3c(N)nccc32)C(O)C1O (stereo not given) . Output GI50: > 87.5 µM (inactive)

Input "Cc1cc2c(cc1Cl)SC(N/N=C(\N)c1ccc(Cl)cc1)=NS2(=O)=O" . Output GI50: 45.7 µM (inactive)

Input "O=c1[nH]c(=O)n([C@H]2C[C@@H](CO)[C@@H](O)C2)cc1I" . Output GI50: > 100 µM (inactive)

Input COC(=O)C(CCC1C=CN(S(=O)(=O)c2ccc(C)cc2)C1)/N=C/c1ccccc1 (stereo not given) . Output GI50: 32.8 µM (inactive)

====

- Test system: T47D
- ASSAY SUMMARY: NCI tumour cell line growth inhibition, 48 h
Calls of active or inactive are those of the source. No stated cut-off is given here; in the data, active = GI50 up to about 1.1 µM and inactive = higher.
GI50 for assorted compounds

Some compounds with recorded GI50:
CC1CC(=O)Nc2ccc(/N=N/N(C)C)cc2N1C=O (configuration not stated); > 100 µM (inactive)
CCN(CC)CC1CCCCN1CC(=O)N1c2ccccc2NC(=O)CC1C (configuration not stated); > 100 µM (inactive)
CO[C@@H](C(=O)OC1C=CC2(CC1)C(=O)N(C)c1ccccc12)c1ccccc1 (some centres not stated); 44.2 µM (inactive)
COC1OC2COC(c3ccccc3)OC2C(OC(=S)c2ccccc2)C1O (configuration not stated); 1.91 µM (inactive)
CC[C@@]12CCCN3CC[C@]4(c5cccc(OC)c5N(C(C)=O)[C@@H]4CC1)[C@H]32; > 100 µM (inactive)

Input CC[C@H](C)[C@H]1NC(=O)[C@@H](NC(=O)[C@@H](CC(C)C)N(C)C(=O)C2CCCN2C(=O)[C@H](C)O)[C@@H](C)OC(=O)[C@H](Cc2ccc(OC)cc2)N(C)C(=O)[C@@H]2CCCN2C(=O)[C@H](CCCCNC(=O)OCc2ccccc2)NC(=O)[C@H](C)C(=O)[C@H](C(C)C)OC(=O)C[C@@H]1O (some centres not stated) . Output GI50: 7.67 µM (inactive)

Input CCOC(=O)CCC1(C(=O)O[C@@H]2C[C@H](C)CC[C@H]2C(C)C)CCCCC1=O (some centres not stated) . Output GI50: 34.8 µM (inactive)

====

GI50 for assorted molecules
- System: IGROV-1
- ASSAY SUMMARY: NCI tumour cell line growth inhibition, 48 h
Activity calls are given as the source filed them. Rule as the data show it: active = GI50 up to about 1.1 µM and inactive = higher.

Some molecules with recorded GI50:
CC(=O)Nc1ccc(-c2cc(C(=O)O)c3cc4ccccc4cc3n2)cc1; > 100 µM (inactive)
Cc1ccc(Nc2nc3c(s2)C(=O)c2ccccc2C3=O)c(C)c1; 16.4 µM (inactive)
O=C1CSC(c2ccccc2[N+](=O)[O-])N1c1ccc(-c2ccc(-n3c(-c4ccccc4)nc4ccccc4c3=O)cc2)cc1 (stereo not given); 57.1 µM (inactive)
NCCCN1CCN(CCCNc2ccc3nnn4c5ccccc5c(=O)c2c34)CC1; 13.5 µM (inactive)
CCOc1ccc(NC(=O)c2c(N/N=C/c3ccc(OC)cc3)nc(=O)[nH]c2C)cc1; 51.5 µM (inactive)

Input "N#C/C(=C\c1cccc(Cl)c1Cl)c1ccccc1" . Output GI50: 33.7 µM (inactive)

Input "Cc1nc2c(n1CCO)C(=O)c1ccccc1C2=O" . Output GI50: 20.3 µM (inactive)

Input CC(=O)OC1CC2C(C)(C)C(=O)C=C[C@]2(C)C2CCC3(C)C(c4ccoc4)[C@@H](O)[C@H]4O[C@]43[C@]12C (stereo not given in full) . Output GI50: 24 µM (inactive)

Input "O=P(O)(O)c1ccc2c(c1)OCCOCCOCCOCCO2" . Output GI50: > 100 µM (inactive)

Input "CN(C)C(=S)/N=c1\ssc(=S)n1C1CCCCC1" . Output GI50: 98.9 µM (inactive)

====

GI50 for assorted molecules
- Test system: T47D
- ASSAY SUMMARY: NCI tumour cell line growth inhibition, 48 h
The source made the active and inactive calls. Cut-off read from the data, not from the text of the source: active = GI50 up to about 1.1 µM and inactive = higher.

Some molecules with recorded GI50:
Cc1ccc(S(=O)(=O)NC2C(=O)c3ccccc3C(=O)C2n2ccnc2)cc1 (stereo unspecified); 17.5 µM (inactive)
C/C(=N\N=C(\N)OB(F)F)c1ccccn1; > 100 µM (inactive)
CCC(C)N1CN(c2ccccc2)C2(CCN(CCCC3(c4ccc(F)cc4)OCCO3)CC2)C1=O (stereo unspecified); 8.28 µM (inactive)
O=C1/C(=C/c2cccnc2)SC(=S)N1Cc1ccco1; 11.7 µM (inactive)
CC(=O)C1C(=O)C(=O)N(c2cccc(C)c2C)C1=O (stereo unspecified); > 100 µM (inactive)

Input COc1cc2nc3n(c2cc1OC)C(O)c1c(Cl)nc(SC)nc1S3 (stereo unspecified) . Output GI50: 3.8 µM (inactive)

====

GI50 for assorted compounds
- System: UO-31
- ASSAY SUMMARY: NCI tumour cell line growth inhibition, 48 h
Calls of active or inactive are those of the source. Cut-off read from the data, not from the text of the source: active = GI50 up to about 1.1 µM and inactive = higher.

Some compounds with recorded GI50:
CCOC(=O)CC(C)C1(C=O)CCCCC1=O (stereo not given); > 100 µM (inactive)
N#Cc1c(OCCF)c2ccccc2n2c1nc1ccccc12; 14.2 µM (inactive)
O=S(=O)(c1ccccc1)c1ccc(/N=N/O)nc1; > 100 µM (inactive)
CCOC(=O)/C=C(/C(=O)OCC)n1cnc2c(=O)[nH]c(NC(C)=O)nc21; > 100 µM (inactive)
CSC12c3cc(C)n(-c4ccc(I)cc4)c3CC(C)(C)CN1C(=O)C2Oc1ccccc1 (stereo not given); > 100 µM (inactive)
NC1=NN(c2ccccc2)C(=O)C1/C(=N\NC(=O)c1cc2ccccc2cc1O)C(=O)Nc1nc([N+](=O)[O-])cs1 (stereo not given); 9.42 µM (inactive)
Clc1ccc(CSc2ncnc3c2ncn3C2CCCCO2)cc1 (stereo not given); 1.88 µM (inactive)
COC(=O)C(CCC1C=CN(S(=O)(=O)c2ccc(C)cc2)C1)/N=C/c1ccccc1 (stereo not given); 65.5 µM (inactive)
COC(=O)C(CCS(=O)(=O)CC(=O)C(=O)Nc1cccc(C(C)=O)c1)C(=O)OC; > 100 µM (inactive)

Field: next compound
Input CNC(=O)NCCCCC(NC(C)=O)C(=O)NCc1ccccc1 (stereo not given) . Output GI50: > 100 µM (inactive)

====

- Tested on: NCI-H226
- ASSAY SUMMARY: NCI tumour cell line growth inhibition, 48 h
Activity calls are given as the source filed them. No stated cut-off is given here; in the data, active = GI50 up to about 1.1 µM and inactive = higher.
GI50 for assorted molecules

Some molecules with recorded GI50:
COc1ccc2c(ccc3c(C(=O)NCCN(C)CCNC(=O)c4cn(C)c5c4ccc4cc(OC)ccc45)cn(C)c32)c1; 0.628 µM (active)
CCN(CC)CCNC(=O)c1nn(-c2ccc(Cl)cc2)c2c1CCc1cc(OC)ccc1-2; 9.38 µM (inactive)
CC1=C(C(=O)CC(=O)C(=O)Nc2ccc(C)c(C)c2)Sc2ccccc2N1; > 100 µM (inactive)
N/N=C1\C(=O)N(C2CCCCC2)C(=O)C1C(=O)NC1CCCCC1 (configuration not stated); > 100 µM (inactive)
CC1(C)C2CCC1(CC(=O)O)C(Cl)C2 (configuration not stated); > 100 µM (inactive)

Input "COc1ccc(/C(Nc2ccccc2)=C(\CCl)c2ccccc2)cc1OC" . Output GI50: 30.9 µM (inactive)

====

- System: SK-MEL-5
- ASSAY SUMMARY: NCI tumour cell line growth inhibition, 48 h
Active and inactive are the calls of the source. No stated cut-off is given here; in the data, active = GI50 up to about 1.1 µM and inactive = higher.
The reply should name one outcome from 1 (yes) for active, 0 (no) for inactive

Solved entries (count: 5):
CC[C@H](C)[C@H]1NC(=O)[C@@H](NC(=O)[C@@H](CC(C)C)N(C)C(=O)C2CCCN2C(=O)[C@H](C)O)[C@@H](C)OC(=O)[C@H](Cc2ccc(OC)cc2)N(C)C(=O)[C@@H]2CCCN2C(=O)[C@H](CCCCNC(=O)OCc2ccccc2)NC(=O)[C@H](C)C(=O)[C@H](C(C)C)OC(=O)C[C@@H]1O (stereo partly drawn); 0 (no)
CC(=O)OC1CC2C(C)(C)C(=O)C=C[C@]2(C)C2CCC3(C)C(c4ccoc4)[C@@H](O)[C@H]4O[C@]43[C@]12C (stereo partly drawn); 0 (no)
O=C(CC1(O)C(=O)Nc2c(Cl)cc(Cl)cc21)c1ccc(Br)cc1 (stereo not drawn); 0 (no)
O=c1[nH]c(=O)n([C@H]2C[C@@H](CO)[C@@H](O)C2)cc1I; 0 (no)
COC(=O)c1cccc(C)c1C1CN=NC12Cc1c(ccc(C)c1C)C2=O (stereo not drawn); 1 (yes)

Write down the call the test reported for this compound. Item: CCC(CCCN)Nc1cc(OC)cc2c(C)ccnc12 (stereo not drawn)
0 (no)

Write down the call the test reported for this compound. Item: Oc1c(C2=NNC(c3cccs3)C2)ccc2ccccc12 (stereo not drawn)
0 (no)

Write down the call the test reported for this compound. Item: "NCCCN1CCN(CCCNc2ccc3nnn4c5ccccc5c(=O)c2c34)CC1"
0 (no)
